# assayed-target: human Werner helicase (WRN-BV08, Uniprot Q14191, amino acids 517-1235 with L1074F point mutation) (Homo sapiens, UniProt Q14191, L1074F)
# Construct: Uniprot Q14191, amino acids 517-1235 with L1074F point mutation; TEV-cleavable 8×His (C, cleaved yes); made in house; host or cells: Sf9 insect cells (baculovirus)
# Sequence (Q14191 with tags, fused parts or gaps L1074F limits assumed): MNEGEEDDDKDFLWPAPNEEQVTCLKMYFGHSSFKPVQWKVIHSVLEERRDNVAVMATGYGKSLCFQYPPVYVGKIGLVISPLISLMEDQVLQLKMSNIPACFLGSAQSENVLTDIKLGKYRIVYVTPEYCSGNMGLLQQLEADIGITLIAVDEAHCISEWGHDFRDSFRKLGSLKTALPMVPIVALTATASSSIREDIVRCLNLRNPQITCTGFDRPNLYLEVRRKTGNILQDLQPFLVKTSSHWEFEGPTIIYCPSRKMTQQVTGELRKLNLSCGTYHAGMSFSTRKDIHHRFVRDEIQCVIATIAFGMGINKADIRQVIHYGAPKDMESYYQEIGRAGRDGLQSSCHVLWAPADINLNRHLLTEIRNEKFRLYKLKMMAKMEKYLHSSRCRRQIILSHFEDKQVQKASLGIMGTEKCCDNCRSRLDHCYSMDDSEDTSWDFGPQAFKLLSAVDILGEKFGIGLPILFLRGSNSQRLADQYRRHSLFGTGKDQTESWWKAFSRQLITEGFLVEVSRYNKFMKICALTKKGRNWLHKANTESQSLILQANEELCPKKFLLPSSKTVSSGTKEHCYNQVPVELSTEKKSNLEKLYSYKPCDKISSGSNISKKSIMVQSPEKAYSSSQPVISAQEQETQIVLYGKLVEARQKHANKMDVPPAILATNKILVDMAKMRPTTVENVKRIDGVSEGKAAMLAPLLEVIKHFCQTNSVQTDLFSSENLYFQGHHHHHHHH
# test: WRN (BV08) ADP-Glo Assay
# Type: biochemical
# measurement-setup: 0.15 nM WRN, 5 μM ATP, 0.1 nM DNA duplex, 15 min preincubation, 60 min at 25° C., pH 7.5, 1% DMSO; read-out: ADP-Glo_hWRN_IC50
# From the text: Example 2: WRN (BV08) ADP-Glo Assay Protocol Bovine skin gelatin (BSG), dimethyl sulfoxide (DMSO), Pluronic F-127 and Tris(2-carboxyethyl)phosphine hydrochloride solution (TCEP) were purchased from Sigma-Aldrich at the highest level of purity possible. […] The reaction was stopped by the addition of the ADP-Glo Kit components (Promega) as directed and the relative luminescence units (RLU) were read on an Envision 2104 (Perkin Elmer). […]
pIC50: −log10 of the molar value.
The entries below come with measured pIC50 values attached.

{"compound": "O=C(Cc1ccc(-c2ccccc2)cn1)N(Cc1ccccc1)C1C=CS(=O)(=O)C1 (centres unmarked)", "pIC50": "4.30 to 5.00"}
{"compound": "CNC(=O)CC(C(=O)N(Cc1ccnc(OC)c1)C1C=CS(=O)(=O)C1)c1ccc(-c2ccc(F)cc2)cc1 (centres unmarked)", "pIC50": "< 4.30"}
{"compound": "COC(C(=O)N(Cc1ccncc1)C1C=CS(=O)(=O)C1)c1ccc(-c2ccc(C)cc2)cc1 (centres unmarked)", "pIC50": "4.30 to 5.00"}
{"compound": "O=C(Cn1cc(-c2ccccc2)nn1)N(Cc1ccncc1)C1C=CS(=O)(=O)C1 (centres unmarked)", "pIC50": "< 4.30"}
{"compound": "O=C(Cc1ccc(C(F)F)cc1)N(Cc1ccncc1)C1C=CS(=O)(=O)C1 (centres unmarked)", "pIC50": "4.30 to 5.00"}
{"compound": "O=C(Cn1cc(-c2ccc(F)c(F)c2)cn1)N(Cc1ccnc(N2CCOCC2)c1)C1C=CS(=O)(=O)C1 (centres unmarked)", "pIC50": "5.30 to 6.30"}
{"compound": "O=C(Cc1ccc2c(c1)COCC2)N(Cc1ccncc1)C1C=CS(=O)(=O)C1 (centres unmarked)", "pIC50": "< 4.30"}
{"compound": "COc1cc(CN(C(=O)Cc2ccc(-n3cccc3C)cc2F)[C@@H]2C=CS(=O)(=O)C2)ccn1", "pIC50": "> 6.30"}
{"compound": "O=C(Cc1ccc(-n2cccc2)cc1)N(Cc1ccnc(-c2ccccc2)c1)C1C=CS(=O)(=O)C1 (centres unmarked)", "pIC50": "5.30 to 6.30"}
{"compound": "CC(C)(O)c1cc(CN(C(=O)C2Cc3cc(-c4ccc(F)cc4)ccc32)C2C=CS(=O)(=O)C2)ccn1 (centres unmarked)", "pIC50": "5.00 to 5.30"}
{"compound": "O=C(C1CC(c2ccccc2)C1)N(Cc1ccncc1)C1C=CS(=O)(=O)C1 (centres unmarked)", "pIC50": "< 4.30"}
{"compound": "O=C(Cn1cnc(-c2ccccc2)n1)N(Cc1ccncc1)C1C=CS(=O)(=O)C1 (centres unmarked)", "pIC50": "< 4.30"}
{"compound": "O=C(CCc1c[nH]c2cc(F)ccc12)N(Cc1ccncc1)C1C=CS(=O)(=O)C1 (centres unmarked)", "pIC50": "4.30 to 5.00"}
{"compound": "O=C(C(c1ccc(-c2ccc(F)cc2)cc1)C1CC1)N(Cc1ccncc1)C1C=CS(=O)(=O)C1 (centres unmarked)", "pIC50": "4.30 to 5.00"}
{"compound": "CC(C)(O)c1cc(CN(C(=O)C2Cc3cc(C(F)(F)F)ccc3O2)C2C=CS(=O)(=O)C2)ccn1 (centres unmarked)", "pIC50": "5.30 to 6.30"}
{"compound": "CN(C)C(C(=O)N(Cc1ccnc(C(C)(C)O)c1)C1C=CS(=O)(=O)C1)c1ccc(-c2ccc(F)c(F)c2)cc1F (centres unmarked)", "pIC50": "4.30 to 5.00"}
{"compound": "Cn1ncc2cc(CN(C(=O)Cc3ccc(-n4cccc4)cc3)C3C=CS(=O)(=O)C3)ccc21 (centres unmarked)", "pIC50": "5.00 to 5.30"}
{"compound": "O=C(Cc1ccc(S(F)(F)(F)(F)F)cc1)N(Cc1nn[nH]n1)C1C=CS(=O)(=O)C1 (centres unmarked)", "pIC50": "< 4.30"}
{"compound": "O=C(Cc1ccc(S(F)(F)(F)(F)F)cc1)N(CC1CC1)C1C=CS(=O)(=O)C1 (centres unmarked)", "pIC50": "4.30 to 5.00"}
{"compound": "COc1cc(CN(C(=O)C(OC2CS(=O)(=O)C2)c2ccc(-c3ccc(F)c(F)c3)cc2F)[C@@H]2C=CS(=O)(=O)C2)ccn1 (some centres unmarked) [I-833]", "pIC50": "4.30 to 5.00"}
